Hello, the source for this data is PubChem BioAssay (NCI), in case you need it.

# Tested on: SF-295 CNS
# EXPERIMENT SUMMARY: NCI tumour cell line growth inhibition, 48 h
# TGI listing for each entry below

Use these answered entries as a reference point.
- Cc1nc2sc(C(=O)c3ccc(Cl)cc3)c(N)c2c(-c2ccccc2Cl)c1C(=O)Nc1ccccc1: 47.9 µM
- CC(=O)OCC1OC(n2c(Br)nc3c2c(=O)n(C)c(=O)n3C)C(OC(C)=O)C1OC(C)=O (configuration not stated): > 100 µM
- Nc1nc(Cl)c(Cl)c(NCC2(O)CCC2)n1: > 100 µM
- CC1(C)Cc2c(Br)c(Br)c(Br)c(OCC(O)CN3CCN(c4ccccn4)CC3)c2O1 (configuration not stated): 21.4 µM
- CC(=O)/C=C/c1ccc(OCc2ccc(Cl)cc2)cc1: > 1000 µM

query: Name the reported TGI value associated with the compound CCn1c2ccccc2c2c(-c3ccccc3)cc3c(c21)C(=O)N(c1ccccc1)C3=O
result: > 100 µM

query: Name the reported TGI value associated with the compound OC1(c2ccc(Cl)cc2)c2ccccc2-c2nc3ccccc3n21 (configuration not stated)
result: > 100 µM

query: Name the reported TGI value associated with the compound Cc1[nH]c2cc(F)ccc2c1-c1nc2c3cccnc3c3ncccc3c2[nH]1
result: 0.818 µM

query: Name the reported TGI value associated with the compound CCCCOC(=O)C1CC[C@H]2[C@@H]3CCc4cc(OC(=O)c5cccc6c(=O)c7ccccc7[nH]c56)ccc4[C@H]3CC[C@]12C (some centres not stated)
result: 16.1 µM

query: Name the reported TGI value associated with the compound C(#CP(c1ccccc1)c1ccccc1)P(C#CP(c1ccccc1)c1ccccc1)c1ccccc1
result: 97.6 µM

query: Name the reported TGI value associated with the compound Cc1ccc2c(c1)nc1n2C(N)=Nc2ccccc2S1
result: > 100 µM

query: Name the reported TGI value associated with the compound CCCCCCCCCCCCCC[n+]1ccc(C)cc1
result: 17.8 µM
